- TARGET_OF_ASSAY: P. falciparum apicoplast DNA polymerase (Pf-apPOL) (Plasmodium falciparum)
- Sequence (Q8ILY1 entry or part of it): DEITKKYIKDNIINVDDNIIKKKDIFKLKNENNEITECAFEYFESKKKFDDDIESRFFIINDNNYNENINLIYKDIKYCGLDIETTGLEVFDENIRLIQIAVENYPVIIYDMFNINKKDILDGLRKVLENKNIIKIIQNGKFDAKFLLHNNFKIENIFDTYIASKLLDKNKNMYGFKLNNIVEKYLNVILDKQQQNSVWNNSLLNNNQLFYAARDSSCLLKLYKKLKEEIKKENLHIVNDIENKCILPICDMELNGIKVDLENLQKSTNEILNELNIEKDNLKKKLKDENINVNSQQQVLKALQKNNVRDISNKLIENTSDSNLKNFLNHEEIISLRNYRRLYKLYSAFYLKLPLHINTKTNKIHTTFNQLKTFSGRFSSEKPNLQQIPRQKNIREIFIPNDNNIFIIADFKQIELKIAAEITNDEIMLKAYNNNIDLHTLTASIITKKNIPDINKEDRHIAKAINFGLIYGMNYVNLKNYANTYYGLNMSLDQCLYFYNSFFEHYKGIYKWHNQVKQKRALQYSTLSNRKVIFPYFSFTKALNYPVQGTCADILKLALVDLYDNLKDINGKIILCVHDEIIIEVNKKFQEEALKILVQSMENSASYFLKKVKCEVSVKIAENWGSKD
- TEST_DETAILS: Fluorescence-based high-throughput DNA polymerase assay (molecular beacon), primary screen and dose-response
- Format: biochemical
- COND: DRC-2; read at 40'; concentration 20
Classification by % inhibition Apol 40' 20 | ranges: range 1 = under 40%, range 2 = from 40% up to 50%, range 3 = 50% and over

COMPOUND: C#CC(C=CC)OC(=O)c1ccccc1C(=O)O (centres unmarked)
TARGET_OF_ASSAY: P. falciparum apicoplast DNA polymerase (Pf-apPOL) (Plasmodium falciparum)
CLASS_ASSIGNMENT: range 3
--
COMPOUND: Cc1cccc(-c2noc(C(=O)NNC(=O)C(Cl)(Cl)Cl)n2)c1
TARGET_OF_ASSAY: P. falciparum apicoplast DNA polymerase (Pf-apPOL) (Plasmodium falciparum)
CLASS_ASSIGNMENT: range 1

Band for Cc1ccsc1Cn1c(C)ccc1C ?
range 1

Band for CC(C)CC(C(=O)O)N1C(=O)C2C3C=CC(C2C1=O)C1C(=O)N(C(CC(C)C)C(=O)O)C(=O)C31 (centres unmarked) ?
range 1

Band for CCCc1ccc(Oc2coc3cc(OC)ccc3c2=O)cc1 ?
range 1

Band for COc1ccc(/C=C/c2cc(C(=O)O)c3ccccc3n2)cc1 ?
range 2

Band for Cc1ccc(N2CCC(NC(=O)Cc3cccs3)C2=O)cc1C (centres unmarked) ?
range 2

Band for COc1ccc(C2CC(c3ccc(Cl)cc3Cl)Nc3nc(N)nn32)cc1OC (centres unmarked) ?
range 2

* * *

Entries and their measured % inhibition Apol 90' follow.
- TARGET_OF_ASSAY: P. falciparum apicoplast DNA polymerase (Pf-apPOL) (Plasmodium falciparum)
- TEST_DETAILS: Fluorescence-based high-throughput DNA polymerase assay (molecular beacon), primary screen and dose-response
- Format: biochemical
- COND: DRC-1; 90'; concentration 10
Hi, when you answer, please include the unit after the number. Thanks!

MOLECULE: Cc1ccc2c(C(=O)NCCc3cccnc3)cc(NC(=O)C(C)C)cc2n1 [KU0206096]
% inhibition Apol 90': 15.2748%
--
MOLECULE: O=C(O)CCS(=O)(=O)c1ccc(-c2ccc(S(=O)(=O)CCC(=O)O)cc2)cc1 [Molecule 32]
% inhibition Apol 90': 43.1445%
--
MOLECULE: CSCCC(C)(O)CNC(=O)C1CC1 (stereo not shown) [KU0200150]
% inhibition Apol 90': 30.4266%
--
MOLECULE: Cc1ccc(C(=O)/C=C/C=C/C=C/N(C)C)o1 [Molecule 96, CN(/C=C/C=C/C=C/C(=O)c1ccc(o1)C)C]
% inhibition Apol 90': 62.1527%
--
MOLECULE: O=C(Nc1nnc(-c2cccs2)o1)c1ccc([N+](=O)[O-])o1 [Molecule 74]
% inhibition Apol 90': 13.6974%
--
MOLECULE: COc1ccc(C)cc1NC(=O)Cn1ccc2c(=O)[nH]ccc21 [Molecule 15, COc1ccc(cc1NC(=O)Cn1ccc2c1cc[nH]c2=O)C]
% inhibition Apol 90': 46.9508%
--
MOLECULE: Cc1ccc(C)n1-c1ccc(C(=O)NNC(=O)c2ccc3nccnc3c2)cc1 [Molecule 53]
% inhibition Apol 90': 7.019%
--
MOLECULE: O=C(Cn1ccc2c(=O)[nH]ccc21)Nc1ccc(Cl)cc1 [Molecule 36, O=C(Cn1ccc2c1cc[nH]c2=O)Nc1ccc(cc1)Cl]
% inhibition Apol 90': 14.0157%

Requested read-out % inhibition Apol 90', target or system P. falciparum apicoplast DNA polymerase (Pf-apPOL) (Plasmodium falciparum), entry Oc1cccc2ccc(/C=C/c3ccc4c(c3)OCO4)nc12 [KU0025984]
24.6628%

Requested read-out % inhibition Apol 90', target or system P. falciparum apicoplast DNA polymerase (Pf-apPOL) (Plasmodium falciparum), entry Cc1ccc(-n2nnc(C(=O)O)c2-c2ccccn2)c(F)c1 [Molecule 54, Cc1ccc(c(c1)F)n1nnc(c1c1ccccn1)C(=O)O]
17.5602%

Requested read-out % inhibition Apol 90', target or system P. falciparum apicoplast DNA polymerase (Pf-apPOL) (Plasmodium falciparum), entry CO/N=C(\C(=O)N[C@@H]1C(=O)N2C(C(=O)[O-])=C(CSc3nc(=O)c([O-])nn3C)CSC12)c1csc(N)n1.[Na+].[Na+] (stereo partly shown) [Molecule 83]
2.565%

Requested read-out % inhibition Apol 90', target or system P. falciparum apicoplast DNA polymerase (Pf-apPOL) (Plasmodium falciparum), entry CCOc1cccc2cc(C(=O)Nc3nnc(-c4ccno4)o3)oc12 [Molecule 28, CCOc1cccc2c1oc(c2)C(=O)Nc1nnc(o1)c1ccno1]
41.5074%

Requested read-out % inhibition Apol 90', target or system P. falciparum apicoplast DNA polymerase (Pf-apPOL) (Plasmodium falciparum), entry N#CC(=NNc1cc(C(F)(F)F)cc(C(F)(F)F)c1)C(=O)c1ccco1 [KU0264276]
41.225%
